The measurements presented in this section are drawn from patent US20250171414A1.

# PROTOCOL_DETAILS: In vivo pharmacokinetic study in SD rats
# STATED_CONDITIONS: Sprague-Dawley (SD), rat, plasma, 1 mg/kg, IV, not fasting, clear
# Protocol: After adaptive feeding, the SPF SD rats were each subjected to a single administration of 1 mg/kg or 3 mg/kg of the compound of the present disclosure intragastrically or by tail vein bolus injection. Plasma was collected at specific time points after administration, and the concentration of the compound in plasma was detected by LC-MS/MS (AB Sciex Qtrap 4500).
Some compounds, each annotated with its measured AUC(0-t).
I only need the number, in ng·h/mL, no unit after it.

Per the records, this compound ( C[C@H](NC(=O)C1C=C(c2ccc(F)cc2)CCN1)C(=O)N[C@@H]1CCc2nc(N)ccc21 (single isomer, unassigned) [Compound L064-IS-02] ) has AUC(0-t) equal to 15600

Per the records, this compound ( C[C@H](NC(=O)[C@H]1C=C(c2ccccc2F)CCN1)C(=O)N[C@@H]1CCc2nc(N)ccc21 [Compound L082] ) has AUC(0-t) equal to 24700

Per the records, this compound ( C[C@H](NC(=O)[C@H]1C=C(c2cccc(F)c2F)CCN1)C(=O)N[C@@H]1CCc2nc(N)ccc21 [Compound L084] ) has AUC(0-t) equal to 26000

Per the records, this compound ( C[C@H](NC(=O)[C@@H]1C=C(c2ccc(F)cc2F)CCN1)C(=O)N[C@@H]1CCc2nc(N)ccc21 (single isomer, unassigned) [Compound L076-IS-02] ) has AUC(0-t) equal to 25900
